// provenance: patent US20250186627A1

So I've got a bunch of molecules here, and I need their Biodistribution: Fat values.
Tested on: NRG-mice bearing LNCaP tumors
MEASUREMENT DESCRIPTION: Biodistribution (and PET/SPECT imaging) in NRG-mice bearing LNCaP tumors
Format: in vivo
CONDITION DESCRIPTION: 72 h p.i., Avg
*1 amine or outer side, *2 acyl side, *3 side chain or, on linkers, in order; H or OH if unused. Where a SMILES comes first, the peptide text is derived from it. [ ]: non-standard residue; d: D form. The star is where a group is joined. ξ: configuration not given here. ξLys(Nα-CO-ξAad) = O=C(O)CCCC(NC(=O)NC(CCCCN*)C(=O)O)C(=O)O; Butanoyl(4-(4-NO2Ph)) = O=C(CCCc1ccc([N+](=O)[O-])cc1)*; DOTA = O=C(O)CN1CCN(CC(=O)O)CCN(CC(=O)*)CCN(CC(=O)O)CC1; Butanoyl(4-(4-MeO-phenyl)) = COc1ccc(CCCC(=O)*)cc1; ξAla(9-anthryl) = NC(Cc1c2ccccc2cc2ccccc12)C(=O)O; X2 = O=C(NC(CCCCN*)C(=O)O)NC(CC(F)C(=O)O)C(=O)O; X1 = O=C(C1CCC(CN[*:1])CC1)[*:2]; ξK = NCCCCC(N)C(=O)O
Respond with the bare value in % ID/g.

Find the measured Biodistribution: Fat: item COc1ccc(CCCC(=O)NCC(=O)NC(CCCCNC(=O)CN2CCN(CC(=O)[O-])CCN(CC(=O)[O-])CCN(CC(=O)[O-])CC2)C(=O)NCC(=O)NCC2CCC(C(=O)NC(Cc3c4ccccc4cc4ccccc34)C(=O)NCCCCC(NC(=O)NC(CC(F)C(=O)O)C(=O)O)C(=O)O)CC2)cc1.[177Lu+3] (stereo not shown) [^177Lu-CCZ02008] ({Butanoyl(4-(4-MeO-phenyl))}-G[ξK](DOTA)G[X1][ξAla(9-anthryl)]-X2) , target or system NRG-mice bearing LNCaP tumors.
0.39

Quick check: Biodistribution: Fat on NRG-mice bearing LNCaP tumors, item COc1ccc(CCCC(=O)NCC(=O)NC(CCCCNC(=O)CN2CCN(CC(=O)[O-])CCN(CC(=O)[O-])CCN(CC(=O)[O-])CC2)CC(=O)NCC2CCC(C(=O)NC(Cc3c4ccccc4cc4ccccc34)C(=O)NCCCCC(NC(=O)NC(CC(F)C(=O)O)C(=O)O)C(=O)O)CC2)cc1.[177Lu+3] (stereo not shown) [^177Lu-CCZ02019] ?
0.16

Form: Entry = O=C([O-])CN1CCN(CC(=O)[O-])CCN(CC(=O)NCCCCC(NC(=O)CNC(=O)CCCc2ccc([N+](=O)[O-])cc2)C(=O)NCC(=O)NCC2CCC(C(=O)NC(Cc3c4ccccc4cc4ccccc34)C(=O)NCCCCC(NC(=O)NC(CCCC(=O)O)C(=O)O)C(=O)O)CC2)CCN(CC(=O)[O-])CC1.[177Lu+3] (stereo not shown) [^177Lu-CCZ02017] ({Butanoyl(4-(4-NO2Ph))}-G[ξK](DOTA)G[X1][ξAla(9-anthryl)]-{ξLys(Nα-CO-ξAad)}) | System = NRG-mice bearing LNCaP tumors | Biodistribution: Fat = ____
0.15

What measured Biodistribution: Fat is associated with O=C([O-])CN1CCN(CC(=O)[O-])CCN(CC(=O)NCCCCC(NC(=O)CNC(=O)CCCc2ccc([N+](=O)[O-])cc2)C(=O)NCC(=O)NCC2CCC(C(=O)NC(Cc3c4ccccc4cc4ccccc34)C(=O)NCCCCC(NC(=O)NC(CCCC(=O)O)C(=O)O)C(=O)O)CC2)CCN(CC(=O)[O-])CC1.[225Ac+3] (stereo not shown) [^225Ac-CCZ02017] ({Butanoyl(4-(4-NO2Ph))}-G[ξK](DOTA)G[X1][ξAla(9-anthryl)]-{ξLys(Nα-CO-ξAad)}) on NRG-mice bearing LNCaP tumors?
0.40
